FYI, the data here is from patent US20130059879A1.

Tested on: HCT-116
protocol: Cancer cell proliferation, Alamar Blue assay, 72 hours
Type: cell-based
condition notes: Homo sapiens, HCT-116
pIC50: −log10 of the molar value.
Please note: Condition met applies when pIC50 is 6 or greater, and Condition not met applies otherwise.

Solved cases (7 shown):
[
  {
    "mol": "O=C(c1ccccc1)c1cc2c(cc(F)c3ccccc32)[nH]1",
    "classification": "Condition met"
  },
  {
    "mol": "COc1cc(C(=O)c2cc3c(cc(F)c4ccccc43)[nH]2)ccc1O",
    "classification": "Condition met"
  },
  {
    "mol": "O=C(c1cccc(O)c1)c1cc2c(ccc3ccccc32)[nH]1",
    "classification": "Condition met"
  },
  {
    "mol": "O=C(c1ccncc1)c1cc2c(cc(F)c3ccccc32)[nH]1",
    "classification": "Condition not met"
  },
  {
    "mol": "COC(=O)c1ccc(C(=O)c2cc3c(ccc4ccccc43)[nH]2)cc1",
    "classification": "Condition not met"
  },
  {
    "mol": "COC(=O)c1cc(C(=O)c2cc3c(ccc4ccccc43)[nH]2)ccc1OCc1ccccc1",
    "classification": "Condition not met"
  },
  {
    "mol": "O=C(c1ccccc1)c1cc2c3c(ccc2[nH]1)CCCC3",
    "classification": "Condition not met"
  }
]

Prompt line: Check this molecule for pIC50 at or above 6: COc1cc(C(=O)c2cc3c(ccc4ccccc43)[nH]2)ccn1
Response line: Condition not met

----------
Tested on: U937
protocol: Cell proliferation, MTT assay, 72 hours
Format: cell-based
condition notes: Homo sapiens, U-937
readout kind: IC50 (nM)
Give the quantity in nM, number only.

Prompt line: // lookup IC50 for O=C(c1ccncc1)c1cc2c(ccc3ccccc32)[nH]1
Response line: 50

----------
protocol: Cell permeability in Caco2 monolayers
Format: in vitro ADME
condition notes: human, Caco-2, Caco2 cells, apical to basal, pH 7.4
readout kind: Papp A→B at 2 h
Express the reported value numerically, then name its unit.

[
  {
    "compound": "O=C(c1ccccc1)c1cc2c(ccc3ccccc32)[nH]1 [ACT-PFK-065, (3H-Benzo[e]indol-2-yl)-phenyl-methanone]",
    "Papp A→B at 2 h": "10.3 ×10⁻⁶ cm/s"
  }
]

The record that follows has no Papp A→B at 2 h shown yet.
Prompt line: What Papp A→B at 2 h value was documented for this compound, O=C(c1ccncc1)c1cc2c(ccc3ccccc32)[nH]1 ?
Response line: 16.2 ×10⁻⁶ cm/s

----------
protocol: Solubility in solvents and excipients, 1 hour at room temperature, HPLC
Format: physicochemical
condition notes: organic solvent or mixture, thermodynamic from solid; Tween80:EtOH 6:4 mixture, 1 hour at room temperature; read-out: Solubility Twee80:EtOH
Decision: solubility at 1 h >= 10 mg/mL yields yes, all other cases yield no.

Prompt line: Could you please find out whether COc1cc(C(=O)c2cc3c(cc(F)c4ccccc43)[nH]2)ccc1O has solubility at 1 h that meets 10 mg/mL or exceeds it?
Response line: no

Prompt line: Would you mind doing O=C(c1ccncc1)c1cc2c(cc(F)c3ccccc32)[nH]1 as well?
Response line: no

Prompt line: Query COc1cccc(C(=O)c2cc3c(ccc4ccccc43)[nH]2)c1 next
Response line: yes

Prompt line: // next record Nc1ccc(C(=O)c2cc3c(ccc4ccccc43)[nH]2)cc1
Response line: yes

Prompt line: And the next one, COc1ccccc1C(=O)c1cc2c(ccc3ccccc32)[nH]1 ?
Response line: yes

Prompt line: Further, for O=C(c1ccncc1)c1cc2c(ccc3ccccc32)[nH]1 ?
Response line: no

Prompt line: Again, but for COc1cc(C(=O)c2cc3c(ccc4ccccc43)[nH]2)ccc1O
Response line: yes

----------
protocol: Solubility in solvents and excipients, 1 hour at room temperature, HPLC
Assay type: physicochemical
condition notes: organic solvent or mixture, thermodynamic from solid; Tween 80, 1 hour at room temperature; read-out: Solubility Tween 80
# if value of solubility at 1 h reaches 10 mg/mL, tag TRUE; if it stays below, tag FALSE

[
  {
    "mol": "O=C(c1ccncc1)c1cc2c(cc(F)c3ccccc32)[nH]1",
    "classification": "FALSE"
  }
]

Prompt line: Can Nc1ccc(C(=O)c2cc3c(ccc4ccccc43)[nH]2)cc1 be said to have solubility at 1 h at or above 10 mg/mL?
Response line: TRUE

Prompt line: Now give it for COc1cccc(C(=O)c2cc3c(cc(F)c4ccccc43)[nH]2)c1 too.
Response line: TRUE

Prompt line: And for COc1cc(C(=O)c2cc3c(cc(F)c4ccccc43)[nH]2)ccc1O ?
Response line: TRUE

Prompt line: Here is the next compound: COc1cccc(C(=O)c2cc3c(ccc4ccccc43)[nH]2)c1
Response line: FALSE

Prompt line: // same read-out, input: COc1ccccc1C(=O)c1cc2c(ccc3ccccc32)[nH]1
Response line: TRUE

Prompt line: Please do the same for O=C(c1ccncc1)c1cc2c(ccc3ccccc32)[nH]1 as well.
Response line: FALSE

Prompt line: Same lookup for COc1cc(C(=O)c2cc3c(ccc4ccccc43)[nH]2)ccc1O , please.
Response line: TRUE

----------
protocol: Pharmacokinetics in mice
Type: in vivo, Balbc mice
condition notes: mouse, plasma; IV 10 mg/kg, male Balbc mice
readout kind: AUC(0-inf) (ng·h/mL)
Answer in ng·h/mL, number only, no unit symbol.

Prompt line: Requested field: AUC(0-inf). Item: O=C(c1ccccc1)c1cc2c(ccc3ccccc32)[nH]1 [ACT-PFK-065, (3H-Benzo[e]indol-2-yl)-phenyl-methanone]
Response line: 2630

----------
Test system: HCT-116
protocol: Cancer cell proliferation, Alamar Blue assay, 72 hours
Format: cell-based
condition notes: Homo sapiens, HCT-116
readout kind: IC50 (nM)
Write the value in nM as a bare number.

Sample records with IC50:
[
  {
    "mol": "COc1cccc(C(=O)c2cc3c(cc(F)c4ccccc43)[nH]2)c1",
    "unit annotation": "nM",
    "IC50": 235
  },
  {
    "mol": "O=C(c1ccnc(Cl)c1)c1cc2c(ccc3ccccc32)[nH]1",
    "unit annotation": "nM",
    "IC50": 355
  }
]

As a next step, examine the molecule that follows.
Prompt line: I have this molecule here, Nc1ccc(C(=O)c2cc3c(ccc4ccccc43)[nH]2)cc1 , and I need its recorded IC50.
Response line: 1440

----------
IC50 overview
Test system: HCT-116
protocol: Cancer cell proliferation, Alamar Blue assay, 72 hours
Assay type: cell-based
condition notes: Homo sapiens, HCT-116
Write the answer as a number in µM, unit excluded.

[
  {
    "mol": "O=C(c1ccncc1)c1cc2c(ccc3ccccc32)[nH]1",
    "system name": "HCT-116",
    "IC50 [µM]": 2.4
  },
  {
    "mol": "COc1cccc(C(=O)c2cc3c(ccc4ccccc43)[nH]2)c1",
    "system name": "HCT-116",
    "IC50 [µM]": 0.695
  },
  {
    "mol": "O=C(c1cc2c(ccc3ccccc32)[nH]1)c1ccccc1O",
    "system name": "HCT-116",
    "IC50 [µM]": 0.495
  }
]

Shift focus to the following entry.
Prompt line: Given the entry O=C(O)c1ccc(C(=O)c2cc3c(ccc4ccccc43)[nH]2)cc1 , report its measured IC50.
Response line: 63.5

----------
protocol: Pharmacokinetics in dogs
Assay type: in vivo
condition notes: dog, plasma; IV 6 mg/kg, male beagle dogs
readout kind: Vd (L/kg)
Only the number, expressed in L/kg, is required.

Prompt line: # Vd lookup, item Nc1ccc(C(=O)c2cc3c(ccc4ccccc43)[nH]2)cc1 [ACT-PFK-112]
Response line: 1.8

----------
protocol: Solubility in solvents and excipients, 1 hour at room temperature, HPLC
Assay type: physicochemical
condition notes: organic solvent or mixture, thermodynamic from solid; DCM, 1 hour at room temperature; read-out: Solubility DCM
readout kind: solubility at 1 h (µg/mL)
Kindly answer with a numeric value in µg/mL, unit omitted.

[
  {
    "mol": "COc1cc(C(=O)c2cc3c(ccc4ccccc43)[nH]2)ccc1O",
    "solubility at 1 h (µg/mL)": 11100
  },
  {
    "mol": "Nc1ccc(C(=O)c2cc3c(ccc4ccccc43)[nH]2)cc1",
    "solubility at 1 h (µg/mL)": 14000
  },
  {
    "mol": "COc1cccc(C(=O)c2cc3c(cc(F)c4ccccc43)[nH]2)c1",
    "solubility at 1 h (µg/mL)": 6000
  }
]

Prompt line: Any idea what solubility at 1 h was measured for O=C(c1ccncc1)c1cc2c(cc(F)c3ccccc32)[nH]1 ?
Response line: 300

Prompt line: Repeat with COc1cccc(C(=O)c2cc3c(ccc4ccccc43)[nH]2)c1
Response line: 8900

Prompt line: Now the compound O=C(c1ccncc1)c1cc2c(ccc3ccccc32)[nH]1
Response line: 3400

Prompt line: Next entry: COc1cc(C(=O)c2cc3c(cc(F)c4ccccc43)[nH]2)ccc1O
Response line: 700

Prompt line: And the next one, COc1ccccc1C(=O)c1cc2c(ccc3ccccc32)[nH]1 ?
Response line: 10400
